These measurements were taken from the array DNA melting data of Ke et al. (doi:10.1101/2024.01.08.574731).

- test: folding enthalpy; higher = less favourable; fluorescence melt of hairpins on a sequencing array, two-state fit
- run.conditions: sodium 0.088 M
Please go through the items and note down their folding enthalpy.
Be sure to follow the number with its unit.

GAATGCGGAAACGCATCC (.(((((....))))).)
-11.6 kcal/mol
GATCCAGCTATGGATC ((((((....))))))
-33.5 kcal/mol
GTGTTTTCGAAAGAACAC (((..(((....))))))
-32.9 kcal/mol
GCGAAGCGAAAGCACCGC (((..((....))..)))
-9.92 kcal/mol

Each sequence below has a reported value. Please supply its folding enthalpy.
1. GATAGCGAAAGCTGGATC ((((((....)))..)))
2. GACAACGAAAGTTGGGTC ((((((....)))..)))
3. GCTCAGCGAAAGCTTAGC (((.(((....))).)))
4. GCTTTCGAAAGAAAAGC ((((((....))).)))
5. GCCCCGCGAAAGCCGGGC ((((.((....)).))))
6. AAACCGAAAGGTTT (((((....)))))

Response:
-12.9 kcal/mol
-15.7 kcal/mol
-44.9 kcal/mol
-31.3 kcal/mol
-18.3 kcal/mol
-20.7 kcal/mol

Quick batch: folding enthalpy for everything below.
1. GTCCGCGAAAGCGCAGAC ((((((....)))..)))
2. GATCCTCAGTAGGATC ((((((....))))))

Response:
1. -14.6 kcal/mol
2. -35.4 kcal/mol

Batch: folding enthalpy for all items listed.
1. GGATCGGCGAAAGCCTCC (((..(((....))))))
2. GATCCAATTCTGGATC ((((((....))))))
3. GGCGTCGAAAGACCAGCC ((((((....)))..)))
4. GCCCTGCGAAAGCGGCGC ((.(.((....)).).))
5. GATCTTGCCGAAGATC ((((((....))))))

Response:
-11.1 kcal/mol
-39.7 kcal/mol
-18.6 kcal/mol
-15 kcal/mol
-28.1 kcal/mol

# batch: return folding enthalpy for each of the 4 sequences below
1. GGTGGGCGAAAGCCTACC (((.(((....))).)))
2. GATCACGAAAGTGCTATC ((((((....)))..)))
3. GATCGGCCCGCCGATC ((((((....))))))
4. GGGAGGGGAAACCCCCCC (((.(((....))).)))

Response:
-22.3 kcal/mol
-12.1 kcal/mol
-43.9 kcal/mol
-38.7 kcal/mol
